Target: T1, HP1a-CSDΔ204 (residues 131-203) (D. melanogaster, UniProt P05205 131-203)
T1 sequence (looked up): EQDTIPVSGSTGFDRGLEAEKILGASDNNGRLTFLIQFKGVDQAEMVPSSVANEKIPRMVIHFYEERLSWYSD
Assay: fluorescence polarisation
No end group written: not given here. fluorescein = fluorescein group at the N-terminus
metric name: pKd
Answers are plain numbers, as −log10 of the molar value.

fluorescein-TSRGSGDPRVKVFRGSSSGDY [PIWI peptide, N-terminal fluorescein] : 4.22

**Query** Any idea what its pKd is? The binder is fluorescein-QNISPRKLSVKINRRPYNKWLR [HP2 peptide Cys to Ser mutant (LSVKI), N-terminal fluorescein]
**Result** 5.31

// data source = paper PMC3154745
